Taken from the supplement of paper PMC9262897.

tested on: E. coli TESEC Alr+ wild-type control; experiment: growth (OD600 after 10 h); higher = more growth (less inhibition); details: compound 0.1 mM; raw OD600 reference: median of DMSO wells 0.241, cell-free background 0.041
Structures can show the parent of a compound that is named as a salt.
Quantity measured: growth
Hey, just send me the number, nothing else.

// worked examples, growth included
Compound | growth
O=C(Nc1ccc([N+](=O)[O-])cc1Cl)c1cc(Cl)ccc1O [Niclosamide] | 0.0431
NNc1nncc2ccccc12 [Hydralazine hydrochloride] | 0.142
CCOC1O[C@H]([C@@H](COCc2ccccc2)OCc2ccccc2)[C@H](OCc2ccccc2)[C@H]1O (some centres undefined) [Tribenoside] | 0.23

Now consider the entry below.
For Cc1onc(-c2c(F)cccc2Cl)c1C(=O)N[C@@H]1C(=O)N2[C@@H]1SC(C)(C)[C@@H]2C(=O)O [Flucloxacillin sodium] the compound record lists growth as 0.228
